Measured on: COX-2 (Ovis aries, UniProt P79208)
Construct: purchased Cayman Chemical Co
Sequence (P79208 17-603): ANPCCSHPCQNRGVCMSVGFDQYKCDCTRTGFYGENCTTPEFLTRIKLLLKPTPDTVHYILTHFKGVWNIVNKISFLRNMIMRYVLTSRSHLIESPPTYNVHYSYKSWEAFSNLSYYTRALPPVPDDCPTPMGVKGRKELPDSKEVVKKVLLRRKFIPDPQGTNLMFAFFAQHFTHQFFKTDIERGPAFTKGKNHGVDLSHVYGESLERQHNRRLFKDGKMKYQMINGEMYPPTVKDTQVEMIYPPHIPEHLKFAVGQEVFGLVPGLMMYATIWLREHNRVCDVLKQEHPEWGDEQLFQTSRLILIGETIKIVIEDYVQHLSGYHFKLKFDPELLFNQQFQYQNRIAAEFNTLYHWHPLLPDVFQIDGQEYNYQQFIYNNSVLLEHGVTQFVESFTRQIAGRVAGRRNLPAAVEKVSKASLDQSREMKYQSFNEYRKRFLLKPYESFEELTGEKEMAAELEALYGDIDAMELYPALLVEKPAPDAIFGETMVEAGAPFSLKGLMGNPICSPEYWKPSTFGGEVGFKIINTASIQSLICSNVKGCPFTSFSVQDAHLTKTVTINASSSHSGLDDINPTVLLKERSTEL
Protocol description: Inhibitory Activity on COX-2 (Assay Example 5)
Format: biochemical
Test context: Table 4
Recorded COX-1/COX-2 (ratio of IC50 values) by entry

Query :: Any idea what COX-1/COX-2 (ratio of IC50 values) was measured for Cc1cccc2nc(-c3cc(C(F)F)nn3-c3ccc(S(N)(=O)=O)cc3)sc12 ?
Result :: > 417

Query :: Any idea what COX-1/COX-2 (ratio of IC50 values) was measured for Cc1ccc2nc(-c3cc(C(F)(F)C(F)(F)F)nn3-c3ccc(S(N)(=O)=O)cc3)sc2c1 ?
Result :: > 769

---

Measured on: COX-2 (Ovis aries)
Construct: purchased Cayman Chemical Co
Protocol description: Inhibitory Activity on COX-2 (Assay Example 5)
Assay type: biochemical
Test context: Table 4
Property name: COX-1/COX-2 (ratio of IC50 values)

| Smiles structure | COX-1/COX-2 (ratio of IC50 values) |
| --- | --- |
| NS(=O)(=O)c1ccc(-n2nc(C(F)F)cc2-c2nc3c(F)cccc3s2)cc1 | > 417 |

Query :: Any idea what COX-1/COX-2 (ratio of IC50 values) was measured for CS(=O)(=O)c1ccc(-n2nc(C(F)(F)F)cc2-c2nc3cccc(F)c3s2)cc1 ?
Result :: > 625

Query :: Any idea what COX-1/COX-2 (ratio of IC50 values) was measured for NS(=O)(=O)c1ccc(-n2nc(C(F)(F)F)cc2-c2nc3ccccc3s2)cc1 ?
Result :: > 1786

Query :: Any idea what COX-1/COX-2 (ratio of IC50 values) was measured for Cc1ccc2nc(-c3cc(C(F)(F)F)nn3-c3ccc(S(N)(=O)=O)cc3)sc2c1 ?
Result :: > 172

Query :: Any idea what COX-1/COX-2 (ratio of IC50 values) was measured for Cc1ccc2nc(-c3cc(C(F)(F)C(F)(F)F)nn3-c3ccc(S(C)(=O)=O)cc3)sc2c1 ?
Result :: > 270

Query :: Any idea what COX-1/COX-2 (ratio of IC50 values) was measured for NS(=O)(=O)c1ccc(-n2nc(C(F)F)cc2-c2nc3ccc(Cl)cc3s2)cc1 ?
Result :: 21

Query :: Any idea what COX-1/COX-2 (ratio of IC50 values) was measured for NS(=O)(=O)c1ccc(-n2nc(C(F)(F)F)cc2-c2nc3cccc(F)c3s2)cc1 ?
Result :: > 625

Query :: Any idea what COX-1/COX-2 (ratio of IC50 values) was measured for Cc1ccc2nc(-c3cc(C(F)F)nn3-c3ccc(S(N)(=O)=O)cc3)sc2c1 ?
Result :: 623
